Measurement Notes: chemical genetic growth profiling, strain panel (AID 1159580);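 also: tested at 20 µM; growth read once vehicle control cultures reached saturation at 30 °C; 1 = growth at the plate median or of vehicle wells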
Condition Set: S. cerevisiae deletion strains, growth OD, locus YKL085W, strain MDH1, stronger effect = lower value
Among all 5,500 compounds or so, about 2,000 (36%) were called active. About 18% were inconclusive and are not listed. The list shows a part of the results.
Record form. Attribute: normalized growth. Fill in for each entry.
Respond using a number only.

Request: Fill blank: measured normalized growth of the molecule CCC(N)C(O)c1ccc(O)c(O)c1 (stereo unspecified) is ____.
Result: 0.985

Request: Could you share which normalized growth value was measured for CCC(c1ccc(O)cc1)C(CC)c1ccc(O)cc1 (stereo unspecified) ?
Result: 0.984

Request: Quick one: normalized growth for COc1cc(OC)c2c(=O)c(OC)c(-c3ccc(OC)c(OC)c3)oc2c1 ?
Result: 0.997

Request: Can you share its normalized growth? I mean this molecule: CCOCN(C(=O)CCl)c1c(C)cccc1CC
Result: 0.991

Request: Data request, read-out normalized growth, for COC(=O)C[C@H]1C(C)(C)C2(Cl)O[C@@]34CC2C(=O)[C@]1(C)C3CC[C@]1(C)C4=CC(=O)O[C@H]1c1ccoc1 (stereo partly specified)
Result: 0.996

Request: Look up normalized growth for this molecule: Cc1[nH]ccc2c1[nH]c1cc(=O)ccc12
Result: 1.01

Request: Which value of normalized growth has been reported for COc1ccc(-c2cc(=O)c3c(O)cc(O[C@H]4O[C@H](CO[C@@H]5O[C@@H](C)[C@H](O)[C@@H](O)[C@H]5O)[C@@H](O)[C@H](O)[C@H]4O)cc3o2)cc1 in the records?
Result: 0.999

Request: What measured normalized growth goes with COc1ccc(-c2oc3c(CC=C(C)C)c(O[C@@H]4O[C@H](CO)[C@@H](O)[C@H](O)[C@H]4O)cc(O)c3c(=O)c2O[C@@H]2O[C@@H](C)[C@H](O)[C@@H](O)[C@H]2O)cc1 ?
Result: 0.975

Request: Bench note: what normalized growth did CC12CCC3c4ccc(OC(=O)c5ccccc5)cc4CCC3C1CCC2O (stereo unspecified) show?
Result: 1

Request: GET /values?readout=normalized growth&item= OCC(O)C(O)C(O)C(O)C(O)CO (stereo unspecified)
Result: 1

Request: Consider the molecule shown here: CC/C(=C(/CC)c1ccc(O)cc1)c1ccc(O)cc1 What is its recorded normalized growth?
Result: 0.973

Request: Please report the recorded normalized growth for CN1C(C)(C)CCCC1(C)C .
Result: 1.01

Request: Return reported normalized growth; argument: O=c1c(O)c(-c2cc(O)c(O)c(O)c2)oc2cc(O)cc(O)c12
Result: 1

Request: Which measured normalized growth value corresponds to O=C(Cc1cccs1)NC1C(=O)N2C(C(=O)[O-])=C(C[n+]3ccccc3)CSC12 (stereo unspecified) ?
Result: 1

Request: Recorded normalized growth of COc1cc(OC)c2c(=O)c(O)c(-c3ccc(OC)c(OC)c3)oc2c1 , please.
Result: 1.05

Request: Please report the recorded normalized growth for NC(=O)NCC(N)C(=O)O (stereo unspecified) .
Result: 1.01

Request: Need normalized growth, item CCc1cc(C(N)=S)ccn1
Result: 0.964

Request: Sample CCCCCc1c2c(cc(O)c1C(=O)O)OC(=O)c1c(cc(OC)cc1C(=O)CCCC)O2 — what was its normalized growth?
Result: 0.995

Request: Look at this molecule and give its reported normalized growth. C[C@@H]1O[C@@H](OC[C@H]2OC(Oc3c(-c4ccc(OCCO)c(OCCO)c4)oc4cc(OCCO)cc(O)c4c3=O)[C@H](O)[C@@H](O)[C@@H]2O)[C@H](O)[C@H](O)[C@H]1O (stereo partly specified)
Result: 0.981

Request: Endpoint output: normalized growth of CCc1cccc(CC)c1N(COC)C(=O)CCl . Value?
Result: 1.01

Request: Consider the molecule CCCCOc1cc(C(=O)NCCN(CC)CC)c2ccccc2n1 and give its measured normalized growth.
Result: 0.989
